The measurements presented in this section are drawn from ChEMBL document CHEMBL1201862.

Tested on: UACC-257
assay_details: NCI tumour cell line growth inhibition, 48 h
Active and inactive are the calls of the source. Rule as the data show it: active = GI50 up to about 1.1 µM and inactive = higher.
Please answer using one outcome listed in Y for active, N for inactive

input: Hi team, can someone confirm the assay call for O=C1C2=C(C(=O)c3c(O)ccc(O)c31)[C@@H](O)[C@@H](O)[C@@H](O)C2 ?
output: Y

input: Lab log entry: CCN(CC)c1ccc2cc(-c3nc4ccccc4n3C)c(=O)oc2c1 — outcome as called in the assay?
output: N

input: Hi, do you know how CS/C(=N\C(=S)Nc1ccccc1)Nc1ccccc1 came out in this test?
output: N

input: I'd appreciate the recorded outcome for N#Cc1c(-c2cccc(Br)c2)cc(-c2ccc(Cl)cc2)nc1N from this test.
output: N

input: Tell me the recorded outcome of this test for COc1ccc(NS(=O)(=O)c2ccc(/N=C3\C=C(Nc4ccc(S(=O)(=O)Nc5ccc(OC)nn5)cc4)C(=O)c4ccccc43)cc2)nn1 .
output: N

input: For this compound, state the assay outcome: FC(F)(F)c1ccc2nc(Nc3ccc(Cl)c(Cl)c3)c(-c3ccccc3)nc2c1
output: N

input: Call for entry CO[C@H]1C=C[C@@]23c4cc5c(cc4CO[C@]2(O)CN(C)[C@H]3C1)OCO5 :
output: N

input: Which outcome was entered for the compound CC1C(=O)N(c2ccccc2)NC12CCCc1ccccc12 (stereo not given) in this test?
output: N

input: Field: outcome | Entry: CC1[C@@H]2CC=C3C4CCC5Cc6nc7c(nc6C[C@@]5(C)C4CC(=O)[C@]32CO[C@@]1(O)C(O)CC(C)(C)O)CC1CCC2C3=C[C@H]4O[C@@]5(O[C@@](C)(CO)C[C@@H]5O)C(C)[C@@]4(O)[C@]3(C)[C@@H](O)CC2[C@]1(C)C7 (stereo not given in full)
output: Y

input: So what was the verdict on CN(C)c1ccc(/C=C2\C[N+](C)(C)C/C(=C\c3ccc(N(C)C)cc3)C2=O)cc1 in this test?
output: N

input: Could you kindly confirm the outcome this assay logged for CCCCN(CCCC)CC(C(=O)Nc1ccccc1)/C(C)=N\NC(=O)c1ccncc1 (stereo not given) ?
output: N

input: What did the test return for CCOC(=O)c1cc2cc(Cc3ccc4[nH]c(C(=O)OCC)cc4c3)ccc2[nH]1 ?
output: N

input: Give the logged outcome of this assay for the following compound: CCOC1NC(=O)Oc2cc3ccccc3cc21 (stereo not given)
output: N

input: So what was the verdict on Cn1ncc2c(NCc3ccccc3)ncnc21 in this test?
output: N

input: I'd appreciate the recorded outcome for CCCCCCCCCCCOCCC1C(C(C)OCCN2CCCC2)OC2OC(C)(C)OC21 (stereo not given) from this test.
output: N

input: GET /call?item= CC(=O)Nc1[nH]c(=O)[nH]c(=O)c1N(C(C)=O)C(C)=O returns the recorded outcome of this test.
output: N

input: Given CCN(CC)CCNC(=O)c1cc2cc(NC(=O)c3cc4cc([N+](=O)[O-])ccc4[nH]3)ccc2[nH]1 , state the outcome it received in this test.
output: N

input: Status in this test for Oc1c2cccc1Cc1cccc3c1OCCOCCOCCOCCOc1c(cccc1Cc1cccc(c1O)C3)C2 ?
output: N

input: Give the logged outcome of this assay for the following compound: Cc1cc(-c2nc3cccc(F)c3s2)ccc1N
output: N

input: I would be grateful if you could indicate the recorded call for CCCS(=O)(=O)O .
output: N

input: So what was the verdict on Cc1n[nH]c(=O)n1/N=C/c1ccc(F)cc1 in this test?
output: N

input: Which outcome did this test record for the compound COc1cc(OC)c(OC)cc1/C=C/c1nc2ccccc2s1 ?
output: N

input: Check the results log: what was the call for O=C(/C=C\c1ccccc1)N1CCc2ccccc2C1 ?
output: N

input: For CCOC(=O)c1sc(N)nc1N1CCCC1 , what call appears in the results of this test?
output: N

input: What was the test verdict on Cc1occc1/C(S)=N\c1ccc(Cl)c(C(=O)OCC2CC2)c1 ?
output: N

input: How was Nc1n[nH]c(N)n1 classified in this test?
output: N

input: What did the test return for COC(=O)c1c(C)[nH]c2c1C(=O)C(=O)c1nc(C)c(C)nc1-2 ?
output: N

input: What was the test verdict on C=CCN(N=O)C(=O)NCCCC(NC(C)=O)C(=O)NCc1ccccc1 (stereo not given) ?
output: N

input: What outcome does the record of this test show for O=C1/C(=C/c2ccc(Br)s2)NC(=S)N1c1ccccc1 ?
output: N

input: What call does the record list for COC(=O)c1c(O)ccc2c1c1c(n2Cc2ccccc2OC)C(=O)c2ccccc2C1 ?
output: N

input: Test call, this compound: CN(C)CCCN1CCC2(CCC(C(C)(C)C)CC2)CC1
output: N

input: Test call, this compound: C=C1[C@@H](O)C[C@@]23CC[C@@H]4[C@@]5(C)CC[C@@H](OC(C)=O)C(C)(C)[C@@H]5C[C@@H](OC5OC(COC(C)=O)C(O)C(O)C5O)[C@@]4(C)C2=CC[C@H]3[C@H]1C (stereo not given in full)
output: N

input: I would be grateful if you could indicate the recorded call for CCOC(=O)NC(=O)c1cn(CCN2CCN(C(=O)NCCCCCCNC(=O)N3CCN(CCn4cc(C(=O)NC(=O)OCC)c(=O)[nH]c4=O)CC3)CC2)c(=O)[nH]c1=O .
output: N

input: Dear colleague, could you share the recorded outcome for Cc1cn(C2CC(n3cc(Cn4cc(F)c(=O)[nH]c4=O)nn3)C(CO)O2)c(=O)[nH]c1=O (stereo not given) when you have a moment?
output: N

input: Per the assay record, what outcome was assigned to NC(=O)c1csc(C2OC(COP(=O)(O)CP(=O)(O)OCC3OC(n4cnc5c(N)ncnc54)C(O)C3O)C(O)C2O)n1 (stereo not given) ?
output: N

input: What call does the record list for CS(=O)(=O)OCCN1CCN(C(=O)c2cccc3c(Nc4ccc(S(=O)(=O)N=C(N)N)cc4)c4ccccc4nc23)CC1 ?
output: N

input: Which outcome did this test record for the compound COC(=O)c1cc(C)ccc1C1CN=NC12Cc1c(C)cc(C)cc1C2=O (stereo not given) ?
output: N

input: Recorded test outcome, item COc1cc2[nH]c3c(c2cc1OC)CCN[C@@]31CC[C@@]2(CC3c4c(cc(OC)c(O)c42)CCN3C)C[C@@H]1OC (stereo not given in full)
output: N

input: # lookup: test call for CC1=NN(c2nc(N)nc(-c3cc4ccccc4oc3=N)n2)C(C)(C)C1
output: N

input: In this assay, the call recorded for CC(N/N=C(\S)N1CCN(c2ccccn2)CC1)c1cccc[n+]1[O-] (stereo not given) was what?
output: N
